# Condition summary: % Viability non-Wnt responsive cells
Where a SMILES comes first, the peptide text is derived from it.
Recorded metric: viability (%)
# value in %; strip the unit string

Molecule: CC[C@H](C)[C@H](NC(=O)[C@H](CC(C)C)NC(=O)[C@H](Cc1ccccc1)NC(=O)[C@H](CC(C)C)NC(=O)[C@H](CCSC)NC(=O)[C@H](CCCNC(=N)N)NC(=O)[C@H](CO)NC(=O)[C@@H](N)CCSC)C(=O)N[C@@H](CO)C(=O)N[C@@H](Cc1ccccc1)C(=O)N[C@@H](Cc1c[nH]c2ccccc12)C(=O)NCC(=O)O [compound 52] (H-MSRMLFLISFWG-OH)
Units label: %
viability: 87.2

Below: the item to evaluate.
Lab note: measured viability of CC[C@H](C)[C@@H]1NC(=O)[C@H](CC(C)C)NC(=O)[C@H](Cc2ccccc2)NC(=O)[C@H](Cc2c[nH]c3ccccc23)NC(=O)[C@H](CCSC)NC(=O)[C@@H](N)CCCCNC(=O)C[C@@H](C(=O)O)NC(=O)[C@H](Cc2c[nH]c3ccccc23)NC(=O)[C@H](C)NC(=O)[C@H](CS)NC1=O [compound 167] (HELM PEPTIDE1{K.M.W.F.L.I.C.A.W.D}$PEPTIDE1,PEPTIDE1,1:R3-10:R3$$$V2.0) was 98.8

###

# Measured target: Wnt-responsive promoter (TCF/LEF)
# Experiment summary: Wnt-dependent luciferase reporter assay
Recorded metric: EC50

Lab note: measured EC50 of CC[C@H](C)[C@H]1NC(=O)[C@@H](CO)NC(=O)[C@@H](CCC(=O)O)NC(=O)[C@H](Cc2c[nH]c3ccccc23)NC(=O)CCCCn2cc(nn2)CC(C(N)=O)NC(=O)[C@H](Cc2c[nH]c3ccccc23)NC(=O)[C@H](C(C)C)NC(=O)[C@H](CCCNC(=N)N)NC(=O)[C@@H](CCC(N)=O)NC(=O)[C@@H](C(C)C)NC(=O)[C@@H](Cc2cnc[nH]2)NC(=O)[C@H](CCC(=O)O)NC(=O)[C@H](CC(=O)O)NC(=O)[C@H](CC(C)C)NC1=O (stereo partly shown) was > 30 µM

###

# Measured target: β-catenin (Homo sapiens, UniProt P35222)
# Sequence (P35222 1-781): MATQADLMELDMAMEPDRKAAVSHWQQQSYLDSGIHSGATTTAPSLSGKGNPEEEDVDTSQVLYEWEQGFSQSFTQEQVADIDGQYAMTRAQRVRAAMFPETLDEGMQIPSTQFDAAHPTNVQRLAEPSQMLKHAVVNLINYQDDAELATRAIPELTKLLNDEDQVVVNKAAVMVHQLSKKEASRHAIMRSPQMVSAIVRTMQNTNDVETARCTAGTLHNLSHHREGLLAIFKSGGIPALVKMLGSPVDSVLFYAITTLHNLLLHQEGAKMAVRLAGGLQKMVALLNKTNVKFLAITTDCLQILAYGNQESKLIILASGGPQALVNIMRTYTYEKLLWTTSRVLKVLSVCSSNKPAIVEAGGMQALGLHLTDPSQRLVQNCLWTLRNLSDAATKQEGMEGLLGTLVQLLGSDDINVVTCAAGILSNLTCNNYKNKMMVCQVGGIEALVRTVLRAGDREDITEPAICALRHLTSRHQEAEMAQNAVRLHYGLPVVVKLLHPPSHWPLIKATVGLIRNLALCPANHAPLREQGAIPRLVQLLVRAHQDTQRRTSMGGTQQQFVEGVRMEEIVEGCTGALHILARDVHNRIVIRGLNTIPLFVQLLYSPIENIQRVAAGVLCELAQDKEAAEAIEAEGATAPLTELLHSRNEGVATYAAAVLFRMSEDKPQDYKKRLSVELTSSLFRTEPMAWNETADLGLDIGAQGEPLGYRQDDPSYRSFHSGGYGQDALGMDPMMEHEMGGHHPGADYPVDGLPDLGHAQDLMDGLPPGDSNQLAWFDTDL
# Experiment summary: KD50 measurement using competitive fluorescence polarization (FP) with labelled TCF4
# Type: binding
# Condition summary: fluorescence polarization, β-catenin
Where a SMILES comes first, the peptide text is derived from it.
Recorded metric: β-Cat FP Hill slope
Please state the value as a number alone, without comment.

Consider the following illustrative entries.
Compound: CC[C@H](C)[C@H](NC(=O)[C@H](CC(C)C)NC(=O)[C@H](Cc1ccccc1)NC(=O)[C@@H](N)Cc1c[nH]c2ccccc12)C(=O)N[C@H](C(=O)N[C@H](C(=O)N[C@@H](Cc1c[nH]c2ccccc12)C(=O)O)[C@@H](C)O)[C@@H](C)O [compound 100] (H-WFLITTW-OH)
β-Cat FP Hill slope: 2.8
//
Compound: CC[C@H](C)[C@H](NC(=O)[C@H](CC(C)C)NC(=O)[C@H](Cc1ccccc1)NC(=O)[C@H](Cc1c[nH]c2ccccc12)NC(=O)[C@@H](NC(=O)[C@H](CCCNC(=N)N)NC(=O)[C@H](CO)NC(=O)[C@@H](N)CCSC)C(C)C)C(=O)N[C@@H](CO)C(=O)N[C@@H](Cc1ccccc1)C(=O)N[C@@H](Cc1c[nH]c2ccccc12)C(=O)NCC(=O)O [compound 64] (H-MSRVWFLISFWG-OH)
β-Cat FP Hill slope: 0.7

Below: the item to evaluate.
Lab note: measured β-Cat FP Hill slope of CC[C@H](C)[C@H](NC(=O)[C@H](CC(C)C)NC(=O)[C@H](CC1CCCCC1)NC(=O)[C@H](Cc1c[nH]c2ccccc12)NC(=O)[C@H](CCSC)NC(C)=O)C(=O)N[C@@H](CO)C(=O)N[C@@H](Cc1ccccc1)C(=O)N[C@@H](Cc1c[nH]c2ccccc12)C(=O)NCC(=O)O [compound 216] (HELM PEPTIDE1{[ac].M.W.[Cha].L.I.S.F.W.G}$$$$V2.0) was 1.35

###

# Measured target: Wnt-responsive promoter (TCF/LEF)
# Experiment summary: Wnt-dependent luciferase reporter assay
# Procedure: The luciferase reporter assay is commonly used as a tool to study gene expression at the transcriptional level. […] Luminescence was recorded to determine the peptides with the highest β-catenin-inhibiting activity. EC50 values were calculated based on the inhibition of luminescence and expressed as concentration (uM) in Table 5. Peptides were assessed for their ability to inhibit Wnt signaling. […]
pEC50: −log10 of the molar value. Where a SMILES comes first, the peptide text is derived from it.
Recorded metric: pEC50

Compound: CC[C@H](C)[C@@H]1NC(=O)[C@H](CC(C)C)NC(=O)[C@H]([C@@H](C)CC)NC(=O)[C@H](Cc2c[nH]c3ccccc23)NC(=O)[C@H](CCSC)NC(=O)[C@@H](N)CCCCNC(=O)CNC(=O)[C@H](Cc2c[nH]c3ccccc23)NC(=O)[C@H](Cc2ccccc2)NC(=O)[C@H](CO)NC1=O [compound 71] (HELM PEPTIDE1{K.M.W.I.L.I.S.F.W.G}$PEPTIDE1,PEPTIDE1,1:R3-10:R2$$$V2.0)
pEC50: < 4.52
--
Compound: CC[C@H](C)[C@H](NC(=O)[C@H](CC(C)C)NC(=O)[C@@H](NC(=O)[C@H](Cc1c[nH]c2ccccc12)NC(=O)[C@H](CCSC)NC(=O)[C@@H](N)CCCCN)[C@@H](C)CC)C(=O)N[C@@H](CS)C(=O)N[C@@H](Cc1ccccc1)C(=O)N[C@@H](Cc1c[nH]c2ccccc12)C(=O)NCC(=O)O [compound 113] (H-KMWILICFWG-OH)
pEC50: < 4.52

Lab note: measured pEC50 of CC[C@H](C)[C@H](NC(=O)[C@H](CC(C)C)NC(=O)[C@H](Cc1ccccc1)NC(=O)[C@H](Cc1c[nH]c2ccccc12)NC(=O)[C@@H](N)CCSC)C(=O)N[C@@H](CO)C(=O)N[C@@H](Cc1ccccc1)C(=O)N[C@@H](Cc1c[nH]c2ccccc12)C(=O)O [compound 112] (H-MWFLISFW-OH) was > 5.12

Lab note: measured pEC50 of CC[C@H](C)[C@H](NC(=O)[C@H](CC(C)C)NC(=O)[C@H](Cc1ccccc1)NC(=O)[C@H](Cc1c[nH]c2ccccc12)NC(=O)[C@@H](N)CCSC)C(=O)N[C@@H](CS)C(=O)N[C@@H](Cc1ccccc1)C(=O)N[C@@H](Cc1c[nH]c2ccccc12)C(=O)NCC(=O)O [compound 154] (H-MWFLICFWG-OH) was 4.65 to 4.82

Lab note: measured pEC50 of CC[C@H](C)[C@H](NC(=O)[C@H](CC(C)C)NC(=O)[C@H](Cc1ccccc1)NC(=O)[C@@H](N)Cc1c[nH]c2ccccc12)C(=O)N[C@H](C(=O)N[C@H](C(=O)N[C@@H](Cc1c[nH]c2ccccc12)C(=O)O)[C@@H](C)O)[C@@H](C)O [compound 100] (H-WFLITTW-OH) was 4.82 to 5.12

Lab note: measured pEC50 of CC[C@H](C)[C@H](NC(=O)[C@H](CC(C)C)NC(=O)[C@H](Cc1ccccc1)NC(=O)[C@H](Cc1c[nH]c2ccccc12)NC(=O)[C@H](CCSC)NC(=O)[C@H](CCCNC(=N)N)NC(=O)[C@H](CO)NC(=O)[C@@H](N)CC(=O)O)C(=O)N[C@@H](CO)C(=O)N[C@@H](Cc1ccccc1)C(=O)N[C@@H](Cc1c[nH]c2ccccc12)C(N)=O [compound 85] (H-DSRMWFLISFW-NH2) was < 4.52

Lab note: measured pEC50 of CC[C@H](C)[C@H](NC(=O)[C@H](CC(C)C)NC(=O)[C@@H](NC(=O)[C@H](Cc1c[nH]c2ccccc12)NC(=O)[C@H](CCSC)NC(C)=O)C1CCCCC1)C(=O)N[C@@H](CO)C(=O)N[C@@H](Cc1ccccc1)C(=O)N[C@@H](Cc1c[nH]c2ccccc12)C(=O)NCC(=O)O [compound 217] (HELM PEPTIDE1{[ac].M.W.[O=C([C@@H](N[*:1])C1CCCCC1)[*:2]].L.I.S.F.W.G}$$$$V2.0) was > 5.12

Lab note: measured pEC50 of CC[C@H](C)[C@H](NC(=O)[C@H](CC(C)C)NC(=O)[C@H](CC(C)C)NC(=O)[C@H](Cc1c[nH]c2ccccc12)NC(=O)[C@H](CCSC)NC(C)=O)C(=O)N[C@@H](CO)C(=O)N[C@@H](Cc1ccccc1)C(=O)N[C@@H](Cc1c[nH]c2ccccc12)C(=O)NCC(=O)O [compound 218] (Ac-MWLLISFWG-OH) was > 5.12

Lab note: measured pEC50 of CC[C@H](C)[C@@H]1NC(=O)[C@H](CC(C)C)NC(=O)[C@H](Cc2ccccc2)NC(=O)[C@H](Cc2c[nH]c3ccccc23)NC(=O)[C@H](CCSC)NC(=O)[C@@H](NC(C)=O)CCCCNC(=O)CC[C@@H](C(=O)O)NC(=O)[C@H](Cc2c[nH]c3ccccc23)NC(=O)[C@H](Cc2ccccc2)NC(=O)[C@H](CS)NC1=O [compound 186] (HELM PEPTIDE1{[ac].K.M.W.F.L.I.C.F.W.E}$PEPTIDE1,PEPTIDE1,2:R3-11:R3$$$V2.0) was < 4.52

Lab note: measured pEC50 of CC[C@H](C)[C@H](NC(=O)[C@H](CC(C)C)NC(=O)[C@H](Cc1ccccc1)NC(=O)[C@H](Cc1c[nH]c2ccccc12)NC(=O)[C@@H](N)CCSC)C(=O)N[C@@H](CO)C(=O)N[C@@H](Cc1ccccc1)C(=O)N[C@@H](Cc1c[nH]c2ccccc12)C(=O)N(C)[C@@H](C)C(=O)NCC(=O)O [compound 45] (HELM PEPTIDE1{M.W.F.L.I.S.F.W.[meA].G}$$$$V2.0) was > 5.12

Lab note: measured pEC50 of CC[C@H](C)[C@@H]1NC(=O)[C@H](CC(C)C)NC(=O)[C@H]([C@@H](C)CC)NC(=O)[C@H](Cc2c[nH]c3ccccc23)NC(=O)[C@@H](NC(C)=O)CCCCNC(=O)CC[C@@H](C(=O)O)NC(=O)[C@H](Cc2c[nH]c3ccccc23)NC(=O)[C@H](C)NC(=O)[C@H](CO)NC1=O [compound 188] (HELM PEPTIDE1{[ac].K.W.I.L.I.S.A.W.E}$PEPTIDE1,PEPTIDE1,2:R3-10:R3$$$V2.0) was > 5.12
